Provenance of the data: paper PMC2365708

Target: T1, MutS (Escherichia coli, UniProt P23909 1-853)
T1 sequence: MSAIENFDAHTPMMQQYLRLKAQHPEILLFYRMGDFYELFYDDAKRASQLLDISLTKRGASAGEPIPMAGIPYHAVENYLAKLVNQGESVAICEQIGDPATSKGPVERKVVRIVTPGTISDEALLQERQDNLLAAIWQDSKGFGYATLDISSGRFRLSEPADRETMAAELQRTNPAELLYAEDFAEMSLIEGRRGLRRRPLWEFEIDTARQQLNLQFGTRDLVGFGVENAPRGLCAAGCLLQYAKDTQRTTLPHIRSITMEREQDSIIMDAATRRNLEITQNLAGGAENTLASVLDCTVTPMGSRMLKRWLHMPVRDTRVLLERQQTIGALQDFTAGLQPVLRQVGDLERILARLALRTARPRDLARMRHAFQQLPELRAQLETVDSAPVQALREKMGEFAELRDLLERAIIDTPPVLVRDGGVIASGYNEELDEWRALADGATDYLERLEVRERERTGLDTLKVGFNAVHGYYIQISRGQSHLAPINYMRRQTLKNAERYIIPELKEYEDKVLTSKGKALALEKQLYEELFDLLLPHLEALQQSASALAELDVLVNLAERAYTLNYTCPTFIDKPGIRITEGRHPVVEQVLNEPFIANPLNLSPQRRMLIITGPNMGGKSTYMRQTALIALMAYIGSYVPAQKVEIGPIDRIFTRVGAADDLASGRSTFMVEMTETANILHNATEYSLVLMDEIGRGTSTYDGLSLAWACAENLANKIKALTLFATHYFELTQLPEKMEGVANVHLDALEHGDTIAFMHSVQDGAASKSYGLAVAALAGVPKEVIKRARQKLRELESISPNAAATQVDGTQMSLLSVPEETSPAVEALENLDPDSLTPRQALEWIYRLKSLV
Experiment: EMSA; 5 mM Mg2+; 20 pmol unlabeled GC duplex; 20 mM Tris-HCl pH 7.6, 50 mM KCl, 5 mM MgCl2, 1 mM DTT, 0.05 mg/ml BSA, 37 °C 15 min, 20 μl, 2 pmol labeled duplex, 20 pmol unlabeled GC duplex, 5% native PAGE
Details: protein: recombinant; tags: His6; chain copies: 2; label: 5'-32P (KN-2 or KN-3 strand); O6-MeG:T pair
Measurement Name: pKd
Entry type: numeric. Quantity: pKd, the -log10 of concentration in molar units.

Item O6-MeG:T duplex (dsDNA, O6-methylguanine opposite T) DNA 1: GGTCGCTGGGGAATGGGAGTGGCCACGGCG DNA 2: CGCCGTGGCCACTCTCATTCCCCAGCGACC has what recorded pKd?
6.92
